Assay: chemical genetic growth profiling, strain panel (AID 1159580);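 note: tested at 20 µM; growth read once vehicle control cultures reached saturation at 30 °C; 1 = growth at the plate median or of vehicle wells; lower values mean less growth of the strain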
Conditions: S. cerevisiae deletion strains, growth OD, locus YOR136W, strain idh2
In all, about 5,500 compounds went through this assay and about 2,000 (36%) were called active. Roughly 18% stayed inconclusive and do not appear here. Cut-off read from the data, not from the text of the source: active = normalized growth mostly below about 0.91 (no sharp cut-off); inconclusive = no clear call, values can overlap the other calls; inactive = mostly above about 0.92. The list shows a part of the results.
The reply should name one outcome from yes (1) = active, no (0) = inactive

Study these solved cases before continuing.
{"COMPOUND": "CN1CCN2c3ccccc3Cc3ccccc3C2C1 (stereo not given)", "CLASS NAME": "no (0)"}
{"COMPOUND": "Nc1ccc(C(=O)Oc2ccccc2)c(O)c1", "CLASS NAME": "yes (1)"}
{"COMPOUND": "CCCCCCCCCCCCCCCC[n+]1ccccc1", "CLASS NAME": "yes (1)"}

Field: outcome | Entry: COc1ccc(-c2cc(=O)c3c(OC(C)=O)cc(OC(C)=O)cc3o2)cc1
no (0)

Recorded test outcome, item CC(=O)Nc1ccc(O)cc1
no (0)

Test call, this compound: CC(=O)O[C@H]1C[C@H](O[C@H]2[C@@H](O)C[C@H](O[C@H]3[C@@H](O)C[C@H](O[C@H]4CC[C@@]5(C)C(CCC6C5C[C@@H](O)[C@]5(C)[C@@H](C7=CC(=O)OC7)CC[C@]65O)C4)O[C@@H]3C)O[C@@H]2C)O[C@H](C)[C@H]1O[C@@H]1O[C@H](CO)[C@@H](O)[C@H](O)[C@H]1O (stereo not given in full)
no (0)

Which outcome was assigned to Cc1cc2cc3c(C)cc(=O)oc3c(C)c2o1 in this test?
no (0)

GET /call?item= O=c1c(-c2cc(O)c(O)c(O)c2)coc2cc(O)c(O)c(O)c12 returns the recorded outcome of this test.
no (0)

Which outcome was entered for the compound CC(=O)Nc1ccc(OC(=O)c2ccccc2O)cc1 in this test?
no (0)

// return assay outcome for C=CCc1ccccc1OCC(O)CNC(C)C (stereo not given)
no (0)

Ref: PubChem BioAssay AID1159580
